Target Under Test: Oxytocin receptor (Homo sapiens)
Measurement Protocol: human OXTR potentiators, primary screen, fluorescence, CHO-OTR cells, Fluo-8 calcium (AID 2445);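 further: 100% uses oxytocin at 75 nM as the full agonist control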
Condition Parameters: Fluo-8 calcium fluorescence, potentiator mode, at 3 µM, hits give high values, 0% = oxytocin EC15, 100% = EC100
In all, about 320,000 compounds went through this assay and about 200 (0.062%) were called active. The sample holds actives, similar compounds and a random draw of the others, so the mix is not that of the screen.
YES means recorded activation is -10% or above; NO means it is below -10%.

{"Compound": "COc1ccc(N(C(=O)c2snc(C(N)=O)c2N)C(C(=O)NC2CCCC2)c2ccc(C)o2)c(OC)c1 (stereo unspecified)", "Target Under Test": "Oxytocin receptor (Homo sapiens)", "Class Name": "YES"}
{"Compound": "CSc1ncccc1C(=O)OCc1ccc(Br)cc1", "Target Under Test": "Oxytocin receptor (Homo sapiens)", "Class Name": "NO"}
{"Compound": "C=CCNC(=O)c1ccc2c3n(nc2c1)-c1ccc(C)cc1CO3", "Target Under Test": "Oxytocin receptor (Homo sapiens)", "Class Name": "NO"}
{"Compound": "Cc1cccc(OCC(O)CN2CCN(S(=O)(=O)c3ccc(C)cc3C)CC2)c1 (stereo unspecified)", "Target Under Test": "Oxytocin receptor (Homo sapiens)", "Class Name": "NO"}
{"Compound": "CCCCn1c(N)c(N(CC(C)C)C(=O)CSc2ccc([N+](=O)[O-])cc2)c(=O)[nH]c1=O", "Target Under Test": "Oxytocin receptor (Homo sapiens)", "Class Name": "YES"}
{"Compound": "OC(COc1ccc(F)cc1Cl)CN1CCc2ccccc2C1 (stereo unspecified)", "Target Under Test": "Oxytocin receptor (Homo sapiens)", "Class Name": "YES"}
{"Compound": "O=C(COC(=O)c1ccc(F)cc1F)Nc1ncccn1", "Target Under Test": "Oxytocin receptor (Homo sapiens)", "Class Name": "YES"}
{"Compound": "Nc1ccc(SCCN2C(=O)c3ccccc3C2=O)cc1", "Target Under Test": "Oxytocin receptor (Homo sapiens)", "Class Name": "YES"}
{"Compound": "COc1ccccc1CNS(=O)(=O)CC12CCC(CC1=O)C2(C)C (stereo unspecified)", "Target Under Test": "Oxytocin receptor (Homo sapiens)", "Class Name": "NO"}
{"Compound": "COc1ccc(C[C@H]2CN3C(=NC[C@H]3C)N2CCNC(=O)CCC2CCCCC2)cc1", "Target Under Test": "Oxytocin receptor (Homo sapiens)", "Class Name": "YES"}
{"Compound": "CCN(CC(=O)NCc1cccs1)C(=O)c1cccc(S(=O)(=O)Nc2ccccc2OC)c1", "Target Under Test": "Oxytocin receptor (Homo sapiens)", "Class Name": "YES"}

---

Target Under Test: Oxytocin receptor (Homo sapiens) (UniProt P30559)
Sequence (P30559 whole entry, looked up): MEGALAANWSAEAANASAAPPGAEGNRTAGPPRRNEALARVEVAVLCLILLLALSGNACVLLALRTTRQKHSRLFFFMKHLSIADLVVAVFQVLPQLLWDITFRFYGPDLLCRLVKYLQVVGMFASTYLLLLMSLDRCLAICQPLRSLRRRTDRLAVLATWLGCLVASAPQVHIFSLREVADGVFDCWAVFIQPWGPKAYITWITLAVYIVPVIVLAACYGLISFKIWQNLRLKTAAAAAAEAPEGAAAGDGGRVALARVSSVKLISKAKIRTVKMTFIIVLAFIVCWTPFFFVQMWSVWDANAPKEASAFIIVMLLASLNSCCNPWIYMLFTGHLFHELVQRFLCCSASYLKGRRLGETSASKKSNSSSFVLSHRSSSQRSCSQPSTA
Measurement Protocol: human OXTR potentiators, primary screen, fluorescence, CHO-OTR cells, Fluo-8 calcium (AID 2445);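 further: 100% uses oxytocin at 75 nM as the full agonist control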
Condition Parameters: Fluo-8 calcium fluorescence, potentiator mode, at 3 µM, hits give high values, 0% = oxytocin EC15, 100% = EC100
In all, about 320,000 compounds went through this assay and about 200 (0.062%) were called active. Only a selection was taken, and actives are over-represented in it overall.
Measurement Kind: activation (%)

{"Compound": "COc1ccc(SCc2noc(C(=O)NCC3CCCO3)c2C(=O)O)cc1 (configuration not stated)", "Measurement Kind": "activation", "Value Reported": 3.88}
{"Compound": "Brc1ccc(-c2n(-c3ccccn3)c3ccccc3[n+]2-c2ccccn2)cc1", "Measurement Kind": "activation", "Value Reported": -4.84}
{"Compound": "CCOC(=O)[C@H]1[C@H]2COc3cc(OC)ccc3[C@@H]2N2C(=O)N(c3ccc(Br)cc3)C(=O)[C@@]12C", "Measurement Kind": "activation", "Value Reported": -10.7}
{"Compound": "CC(C)Oc1ccccc1C(=O)NC(CO)C(=O)O (configuration not stated)", "Measurement Kind": "activation", "Value Reported": 7}
{"Compound": "CCOc1ccc(-c2c(C)n([O-])c3c([n+]2=O)CCCC3)cc1", "Measurement Kind": "activation", "Value Reported": -2.39}
{"Compound": "O=C(COC(=O)CCc1nc2ccccc2c(=O)[nH]1)Nc1ccc(N2CCOCC2)cc1", "Measurement Kind": "activation", "Value Reported": -2.47}
{"Compound": "COc1ccc([C@H]2[C@H](C(C)=O)N3N=Cc4ccccc4C3C23C(=O)OC(C)(C)OC3=O)cc1 (some centres not stated)", "Measurement Kind": "activation", "Value Reported": -5.56}
{"Compound": "COc1ccc(-c2nc3cnccn3c2NC2CCCCC2)cc1-c1cccc(Cl)c1", "Measurement Kind": "activation", "Value Reported": -2.33}
{"Compound": "CCc1nn(CCCC(=O)NCc2ccc(C)cc2)c(=O)c2cc3occc3n12", "Measurement Kind": "activation", "Value Reported": -17.3}
{"Compound": "COc1cc(OC)cc(C(=O)N[C@H](C(=O)NNC(=O)c2ccc(Br)cc2)C(C)C)c1", "Measurement Kind": "activation", "Value Reported": 0.41}
{"Compound": "O=C(O)CCCCOn1ccnc1", "Measurement Kind": "activation", "Value Reported": 3.24}
{"Compound": "CC1CCCCC12NC(=O)N(CC(=O)Nc1ccc(S(=O)(=O)Nc3ncccn3)cc1)C2=O (configuration not stated)", "Measurement Kind": "activation", "Value Reported": 1.55}
{"Compound": "Cc1c(Cl)cccc1NC(=O)[C@@]1(CC(=O)O)CC(/C=C/c2ccccc2)=NO1", "Measurement Kind": "activation", "Value Reported": -10.7}
{"Compound": "Cc1cccc(NC(=O)Cn2c(=O)n(Cc3ccccc3)c(=O)c3c(C)c(C)sc32)c1", "Measurement Kind": "activation", "Value Reported": -5.82}
{"Compound": "COc1ccc2c(c1)CC[C@@H]1[C@@H]2CC[C@]2(C)C(=O)CC[C@@H]12", "Measurement Kind": "activation", "Value Reported": -6.25}
{"Compound": "Cc1ccc(CNC(=O)CCN2C(=O)[C@@H]3Cc4ccccc4CN3C2=O)cc1", "Measurement Kind": "activation", "Value Reported": -7.86}
{"Compound": "CCC(C)N(C(=O)COC(=O)C1C(C(=O)OC)=C(C)NC(C)=C1C(=O)OC)C1CCS(=O)(=O)C1 (configuration not stated)", "Measurement Kind": "activation", "Value Reported": -7.92}
{"Compound": "Cc1c(-c2nn(C)c(=O)c3ccccc23)oc2ccc(F)cc2c1=O", "Measurement Kind": "activation", "Value Reported": -8.96}
{"Compound": "Cn1c(=O)c2sccc2n(Cc2ccc(Br)cc2)c1=O", "Measurement Kind": "activation", "Value Reported": -7.63}
{"Compound": "CC(=O)N/C(=N/c1nc(C)cc(C)n1)Nc1ccc(F)cc1F", "Measurement Kind": "activation", "Value Reported": 2.96}
{"Compound": "Nc1cc(OC(=O)c2ccccc2Br)nn1S(=O)(=O)c1ccccc1", "Measurement Kind": "activation", "Value Reported": -18.3}
{"Compound": "O=S1(=O)CCOC[C@H](CC2CCCCC2)N1Cc1ccc(F)cc1", "Measurement Kind": "activation", "Value Reported": 0.09}
{"Compound": "Cc1ccc2nc(NC(=O)C3CSC4(C)CCC(=O)N34)sc2c1 (configuration not stated)", "Measurement Kind": "activation", "Value Reported": -1.9}
{"Compound": "Cc1ccc(CNS(=O)(=O)c2ccc3c(c2)N(C)CCO3)cc1", "Measurement Kind": "activation", "Value Reported": -5.63}
{"Compound": "O=S(=O)(NCCOc1cccc2cccnc12)c1ccc(F)cc1", "Measurement Kind": "activation", "Value Reported": -8.04}
{"Compound": "O=C1/C(=C/c2ccc3c(c2)OCO3)Oc2cc(OCC(=O)N3CC(O)C[C@H]3C(=O)O)ccc21 (some centres not stated)", "Measurement Kind": "activation", "Value Reported": -2.05}
{"Compound": "CN(C(=O)c1cccc(NC(=O)Cc2ccc([N+](=O)[O-])cc2)c1)C1CCC1", "Measurement Kind": "activation", "Value Reported": -0.31}
{"Compound": "CC(C)N1C(=S)SC(C)(C)C1n1oc(=O)n(-c2ccc(Cl)c(Cl)c2)c1=O (configuration not stated)", "Measurement Kind": "activation", "Value Reported": -15.1}
{"Compound": "CCCCCCCCCCCCN1[C@@H](CC(C)=O)c2cc(F)cc(F)c2S1(=O)=O", "Measurement Kind": "activation", "Value Reported": 9.85}
{"Compound": "O=C(NCc1ccc(Cl)cc1)C(=O)NCC1CCCN1S(=O)(=O)c1cccs1 (configuration not stated)", "Measurement Kind": "activation", "Value Reported": -5.47}
{"Compound": "CCOc1cc(C2/C(=C(/O)c3ccc(S(=O)(=O)N4CCCCC4)cc3)C(=O)C(=O)N2CCOC)ccc1O (configuration not stated)", "Measurement Kind": "activation", "Value Reported": -8.45}
{"Compound": "COCCN(C(=S)Nc1cccc(Cl)c1C)C(C)c1ccco1 (configuration not stated)", "Measurement Kind": "activation", "Value Reported": 2.23}
{"Compound": "COc1cc2c(cc1OC)C(=O)NCC(C)(C)O2", "Measurement Kind": "activation", "Value Reported": 0.49}
{"Compound": "COc1cccc(NC(=O)CSc2nnc(Cc3ccc(OC)c(OC)c3)o2)c1", "Measurement Kind": "activation", "Value Reported": -7.75}
{"Compound": "Cc1ccc(N2C(=O)CN=C2Nc2nc(C)cc(C)n2)cc1", "Measurement Kind": "activation", "Value Reported": -1.27}
{"Compound": "CCOc1ccc(CNC(=O)CCC(=O)N2CCSc3ccccc32)cc1", "Measurement Kind": "activation", "Value Reported": -5.95}
{"Compound": "CC(C)(CNC(=O)CNC(=O)C1CCCCC1)N1CCOCC1", "Measurement Kind": "activation", "Value Reported": -6.61}
{"Compound": "Cc1ccccc1CCN(CC(=O)NC1CCCCC1)C(=O)c1csnn1", "Measurement Kind": "activation", "Value Reported": -12.1}
{"Compound": "Cc1ccc(N/N=C2\\COC(C)(C)CC2=O)cc1", "Measurement Kind": "activation", "Value Reported": -4.26}
{"Compound": "Cn1cccc1C(=O)N1CCc2ccccc2C1", "Measurement Kind": "activation", "Value Reported": -4.4}
{"Compound": "CCOC(=O)c1ccccc1NC(=O)c1c(N)n(C)c(=O)[nH]c1=O", "Measurement Kind": "activation", "Value Reported": -5.38}
{"Compound": "Cc1ccccc1Cn1c2ccccc2c2cnn(CC(=O)NCc3ccco3)c(=O)c21", "Measurement Kind": "activation", "Value Reported": 1.81}

meta.source: PubChem BioAssay AID2445
